- Tested on: Bacillus subtilis
- experimental_details: Antibacterial activity against Bacillus subtilis after 24 hrs by plate colony counting method
- Assay type: functional
Task for the reader: assign each of the following compounds its reported MIC.
Give the number; µg/mL is assumed, so skip it.

Prompt: Param item = "N#Cc1c(-c2ccc(-c3ccccc3)cc2)nc(SCc2ccc(CSc3nc(-c4ccc(-c5ccccc5)cc4)c(C#N)c(=O)[nH]3)cc2)[nH]c1=O" ; retrieve measured MIC.
Completion: 50

Prompt: # lookup: MIC of "N#Cc1c(-c2ccc(-c3ccccc3)cc2)nc(SCc2ccc(C(=O)NC(=S)Nc3c(Cl)cccc3Cl)cc2)[nH]c1=O"
Completion: 50

Prompt: I would be grateful if you could share the reported MIC for CCn1cc(C(=O)O)c(=O)c2cc(F)c(N3CCNCC3)cc21 [NORFLOXACIN] .
Completion: 25

Prompt: I would be grateful if you could share the reported MIC for "N#Cc1c(-c2ccc(Cl)cc2)nc(SCc2ccc(C(=O)NC(=S)Nc3c(Cl)cccc3Cl)cc2)[nH]c1=O" .
Completion: 50

Prompt: Given the compound "N#Cc1c(-c2ccccc2Cl)nc(SCc2ccc(C(=O)NC(=S)Nc3c(Cl)cccc3Cl)cc2)[nH]c1=O" , what is its reported MIC?
Completion: 50

Prompt: Consider the compound "N#Cc1c(-c2ccccc2Cl)nc(SCc2ccc(C(=O)NC(=S)Nc3ccccc3)cc2)[nH]c1=O" and give its measured MIC.
Completion: 25

Prompt: Which measured MIC value corresponds to "N#Cc1c(-c2ccc(Cl)cc2Cl)nc(SCc2ccc(C(=O)NC(=S)Nc3c(Cl)cccc3Cl)cc2)[nH]c1=O" ?
Completion: 50

Prompt: Value lookup for MIC; key = "N#Cc1c(-c2c(Cl)cccc2Cl)nc(SCc2ccc(C(=O)NC(=S)Nc3c(Cl)cccc3Cl)cc2)[nH]c1=O"
Completion: 50

Prompt: Quick one: MIC of "N#Cc1c(-c2ccc(-c3ccccc3)cc2)nc(SCc2ccc(C(=O)NC(=S)Nc3ccccc3)cc2)[nH]c1=O" ?
Completion: 50

====

- Test system: Staphylococcus aureus
- experimental_details: Antibacterial activity against Staphylococcus aureus after 24 hrs by plate colony counting method
- Type: functional
assay_endpoint: MIC (µg/mL)
State the answer as a number, implicitly in µg/mL.

Prompt: Please give the measured MIC for this compound: "N#Cc1c(-c2ccc(Cl)cc2)nc(SCc2ccc(C(=O)NC(=S)Nc3c(Cl)cccc3Cl)cc2)[nH]c1=O"
Completion: 50

Prompt: Need MIC of "N#Cc1c(-c2ccc(-c3ccccc3)cc2)nc(SCc2ccc(CSc3nc(-c4ccc(-c5ccccc5)cc4)c(C#N)c(=O)[nH]3)cc2)[nH]c1=O" , thanks.
Completion: 25

Prompt: Look up MIC: "N#Cc1c(-c2ccc(-c3ccccc3)cc2)nc(SCc2ccc(C(=O)NC(=S)Nc3c(Cl)cccc3Cl)cc2)[nH]c1=O"
Completion: 50

Prompt: May I ask what MIC has been recorded for "CCn1cc(C(=O)O)c(=O)c2cc(F)c(N3CCNCC3)cc21" ?
Completion: 25

Prompt: Requested field: MIC. Item: "N#Cc1c(-c2ccc(Cl)cc2Cl)nc(SCc2ccc(C(=O)NC(=S)Nc3c(Cl)cccc3Cl)cc2)[nH]c1=O"
Completion: 50

Prompt: Need MIC, item "N#Cc1c(-c2ccccc2Cl)nc(SCc2ccc(C(=O)NC(=S)Nc3c(Cl)cccc3Cl)cc2)[nH]c1=O"
Completion: 50

Prompt: Requested read-out: MIC. Entry: "N#Cc1c(-c2ccccc2Cl)nc(SCc2ccc(C(=O)NC(=S)Nc3ccccc3)cc2)[nH]c1=O"
Completion: 50

Prompt: I am curious: what MIC value has been reported for "N#Cc1c(-c2c(Cl)cccc2Cl)nc(SCc2ccc(C(=O)NC(=S)Nc3c(Cl)cccc3Cl)cc2)[nH]c1=O" ?
Completion: 50

Prompt: GET /values?readout=MIC&item= "N#Cc1c(-c2ccc(-c3ccccc3)cc2)nc(SCc2ccc(C(=O)NC(=S)Nc3ccccc3)cc2)[nH]c1=O"
Completion: 50
